Just for reference, patent US20180273635A1 is where these values come from.

Entries annotated with measured pKd
target: T1, Recombinant human HER2 (human, UniProt P04626 23-652); test: SPR as in Example 3, average of three independent runs
T1 construct: extracellular domain; Analyte of the SPR assays; also called HER2 ECD; ECD2 of HER2
# pKd is unitless: minus log10 of the molar concentration; print number only

binder="Variant 4432 (antibody, name in Kabat numbering, V domains shown, also called literature pertuzumab variant) VH: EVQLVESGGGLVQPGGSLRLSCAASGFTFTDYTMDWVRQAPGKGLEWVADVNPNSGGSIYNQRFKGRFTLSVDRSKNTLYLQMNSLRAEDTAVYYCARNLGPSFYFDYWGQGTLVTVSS VL: DIQMTQSPSSLSASVGDRVTITCKASQDVSIGVAWYQQKPGKAPKLLIYSASYRYTGVPSRFSGSGSGTDFTLTISSLQPEDFATYYCQQYYIYPATFGQGTKVEIK" measure=pKd numeric_value=8.11

What pKd value was documented for this binder, Variant 4433 (antibody, name in Kabat numbering, V domains shown, also called literature pertuzumab variant) VH: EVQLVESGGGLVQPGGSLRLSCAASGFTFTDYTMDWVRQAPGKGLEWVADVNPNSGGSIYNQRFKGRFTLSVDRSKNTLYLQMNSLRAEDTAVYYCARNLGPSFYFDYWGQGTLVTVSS VL: DIQMTQSPSSLSASVGDRVTITCKASQDVSIGVAWYQQKPGKAPKLLIYSASYRYTGVPSRFSGSGSGTDFTLTISSLQPEDFATYYCQQYYIYPFTFGQGTKVEIK ?
8.00

What pKd value was documented for this binder, Variant 4435 (antibody, V domains shown, also called literature pertuzumab variant) VH: EVQLVESGGGLVQPGGSLRLSCAASGFTFTDYTMDWVRQAPGKGLEWVADVNPNSGASIYNQRFKGRFTLSVDRSKNTLYLQMNSLRAEDTAVYYCARNLGPSFYFDYWGQGTLVTVSS VL: DIQMTQSPSSLSASVGDRVTITCKASQDVSIGVAWYQQKPGKAPKLLIYSASYRYTGVPSRFSGSGSGTDFTLTISSLQPEDFATYYCQQYYIYPYTFGQGTKVEIK ?
7.82
